target: GRK2 (Homo sapiens, UniProt P25098); experiment: GRK2 Degradation Assay and Western Blot in PAXF1657 cells; assay type: cell-based; design: endogenous in cells; host or cells: PAXF1657; settings: Conc 3 uM; read-out: Degradation Assay - 3 point: Degradation (%)
Sequence (P25098 whole entry): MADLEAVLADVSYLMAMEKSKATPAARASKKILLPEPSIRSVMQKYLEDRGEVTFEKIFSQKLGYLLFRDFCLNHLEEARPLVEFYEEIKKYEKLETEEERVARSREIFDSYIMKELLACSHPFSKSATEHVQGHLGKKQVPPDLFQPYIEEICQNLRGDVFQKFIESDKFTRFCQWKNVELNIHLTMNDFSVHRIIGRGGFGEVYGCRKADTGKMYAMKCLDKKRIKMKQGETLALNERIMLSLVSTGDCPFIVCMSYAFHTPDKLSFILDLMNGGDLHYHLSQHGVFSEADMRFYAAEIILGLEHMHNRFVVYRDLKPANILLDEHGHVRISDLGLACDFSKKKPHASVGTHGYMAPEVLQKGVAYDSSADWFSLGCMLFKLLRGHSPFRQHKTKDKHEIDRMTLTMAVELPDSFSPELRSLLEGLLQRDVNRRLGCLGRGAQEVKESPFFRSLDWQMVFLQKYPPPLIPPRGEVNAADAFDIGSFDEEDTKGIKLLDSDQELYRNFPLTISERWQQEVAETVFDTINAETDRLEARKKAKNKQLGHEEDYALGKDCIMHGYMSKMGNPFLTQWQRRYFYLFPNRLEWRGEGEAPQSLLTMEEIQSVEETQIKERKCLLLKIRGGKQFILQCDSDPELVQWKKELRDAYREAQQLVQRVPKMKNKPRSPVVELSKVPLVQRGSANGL
Where a name gives a salt, the structure may show the parent alone.
Listing of recorded inhibition at 3 µM by entry.
Expressed in %, but write only the number.

Worked cases, answers included:
Molecule	inhibition at 3 µM (%)
C[C@@H](NC(=O)c1cccc(NCc2nnc(-c3ccncn3)n2C)c1)c1cccc(OCCCCCCOCCOCCOCCC(=O)N2CCN(c3ccc4c(c3)CN(C3CCC(=O)NC3=O)C4=O)CC2)c1 (stereo partly shown) [Compound D131]	89.2
C[C@@H](NC(=O)c1cccc(NCc2nnc(-c3ccncn3)n2C)c1)c1cccc(OCCCN2CCN(c3ccc4c(c3)CN(C3CCC(=O)NC3=O)C4=O)CC2)c1 (stereo partly shown) [Compound D123, hydrochloride]	84
C[C@@H](NC(=O)c1cccc(NCc2nnc(-c3ccncn3)n2C)c1)c1cccc(OCC(=O)N2CCN(c3ccc4c(c3)CN(C3CCC(=O)NC3=O)C4=O)CC2)c1 (stereo partly shown) [Compound D176]	10.7

(Q) Query the reported inhibition at 3 µM for GRK2 (Homo sapiens, UniProt P25098); item: Cc1ncsc1-c1ccc(CNC(=O)[C@@H]2C[C@@H](O)CN2C(=O)C(NC(=O)CCCCCOCCOCCOCCCCCCOc2ccc3c(c2)[C@H](NC(=O)c2cccc(NCc4nnc(-c5ccncn5)n4C)c2)CCO3)C(C)(C)C)cc1 (stereo partly shown) [Compound D186]
(A) -32.6

(Q) Query the reported inhibition at 3 µM for GRK2 (Homo sapiens, UniProt P25098); item: C[C@H](NC(=O)c1cccc(NCc2nnc(-c3ccncn3)n2C)c1)c1cccc(OCCCCCCOCCOCC(=O)Nc2cccc3c2CN(C2CCC(=O)NC2=O)C3=O)c1 (stereo partly shown) [Compound D193]
(A) 29.6

(Q) Query the reported inhibition at 3 µM for GRK2 (Homo sapiens, UniProt P25098); item: C[C@@H](NC(=O)c1cccc(NCc2nnc(-c3ccncn3)n2C)c1)c1cccc(C(=O)N2CCC(CN3CCN(c4ccc5c(c4)CN(C4CCC(=O)NC4=O)C5=O)CC3)CC2)c1 (stereo partly shown) [Compound D122, hydrochloride]
(A) 92.5

(Q) Query the reported inhibition at 3 µM for GRK2 (Homo sapiens, UniProt P25098); item: C[C@@H](NC(=O)c1cccc(NCc2nnc(-c3ccncn3)n2C)c1)c1cccc(OCCCCCOCCCOCCNc2ccc3c(c2)CN(C2CCC(=O)NC2=O)C3=O)c1 (stereo partly shown) [Compound D171]
(A) 76.2

(Q) Query the reported inhibition at 3 µM for GRK2 (Homo sapiens, UniProt P25098); item: CN[C@@H](C)C(=O)N[C@H](C(=O)N1CCC[C@H]1c1nc(C(=O)c2cccc(OCc3cn(CCCCCCOc4cccc([C@@H](C)NC(=O)c5cccc(NCc6nnc(-c7ccncn7)n6C)c5)c4)nn3)c2)cs1)C1CCCCC1 [Compound D105]
(A) 85
